Source listed as ChEMBL document CHEMBL4011638.

tested on: Bacillus cereus; experiment: Antibacterial activity against Bacillus cereus ATCC 11778 after 24 hrs by broth microdilution method; type: functional; settings: ATCC 11778, 24 h
Assignment: determine reported MIC for the given molecules.

Some solved entries appear below for comparison.
| molecule | MIC |
| --- | --- |
| COc1ccc(-c2oc3c(CC=C(C)C)c(OCC(=O)N[C@@H](CCCNC(=N)N)C(=O)OC(C)(C)C)cc(O)c3c(=O)c2OCC(=O)N[C@@H](CCCNC(=N)N)C(=O)OC(C)(C)C)cc1 | 3.4 µM |
| COc1ccc(-c2oc3c(CC=C(C)C)c(O)cc(O)c3c(=O)c2O)cc1 [ICARITIN] | 136 µM |
| CCN(CC)CCOc1cc(O)c2c(=O)c(OCCN(CC)CC)c(-c3ccc(OC)cc3)oc2c1CC=C(C)C | > 50 µg/mL |

Consider now this further molecule.
API: value(readout=MIC, system=Bacillus cereus) for record COC(=O)[C@H](CCCNC(=N)N)NC(=O)COc1cc(O)c2c(=O)c(O)c(-c3ccc(OC)cc3)oc2c1CC=C(C)C 10.4 µM

---

experiment: Cytotoxicity against human Corneal fibroblasts assessed cell viability at 50 uM after 24 hrs by Cell Titer-Glo luminescent assay; format: cell-based, Corneal fibroblast; settings: read-out: Activity
reported endpoint: viability at 24 h, 50 µM (%)
Give bare numbers, in %.

Entry COC(=O)[C@H](CCCNC(=N)N)NC(=O)COc1cc(O)c2c(=O)c(OCC(=O)N[C@@H](CCCNC(=N)N)C(=O)OC)c(-c3ccc(OC)cc3)oc2c1CC=C(C)C has what viability at 24 h, 50 µM? 97.7

---

system: Bacillus cereus; experiment: Antibacterial activity against Bacillus cereus ATCC 11778 after 24 hrs by broth microdilution method; type: functional; conditions: ATCC 11778, 24 h
Would you kindly list MIC for each of these compounds?

In the examples that follow, each entry is paired with its recorded MIC.
| smiles notation | MIC |
| --- | --- |
| CN[C@H](CC(C)C)C(=O)N[C@H]1C(=O)N[C@@H](CC(N)=O)C(=O)N[C@H]2C(=O)N[C@H]3C(=O)N[C@H](C(=O)N[C@H](C(=O)O)c4cc(O)cc(O)c4-c4cc3ccc4O)[C@H](O)c3ccc(c(Cl)c3)Oc3cc2cc(c3O[C@@H]2O[C@H](CO)[C@@H](O)[C@H](O)[C@H]2O[C@H]2C[C@](C)(N)[C@H](O)[C@H](C)O2)Oc2ccc(cc2Cl)[C@H]1O | 1.1 µM |
| COC(=O)[C@H](Cc1cnc[nH]1)NC(=O)COc1cc(O)c2c(=O)c(OCC(=O)N[C@@H](Cc3cnc[nH]3)C(=O)OC)c(-c3ccc(OC)cc3)oc2c1CC=C(C)C | > 63.5 µM |
| COC(=O)[C@H](CCCNC(=N)N)NC(=O)[C@H](CCCNC(=N)N)NC(=O)COc1cc(O)c2c(=O)c(OCC(=O)N[C@@H](CCCNC(=N)N)C(=O)N[C@@H](CCCNC(=N)N)C(=O)OC)c(-c3ccc(OC)cc3)oc2c1CC=C(C)C | 11 µM |
| CCN(CC)CCCCCCOc1cc(O)c2c(=O)c(OCCCCCCN(CC)CC)c(-c3ccc(OC)cc3)oc2c1CC=C(C)C | 12.5 µg/mL |
| CCN(CC)CCCCOc1cc(O)c2c(=O)c(OCCCCN(CC)CC)c(-c3ccc(OC)cc3)oc2c1CC=C(C)C | 6.25 µg/mL |

Go through the items and report each one's MIC.
1. CCN(CC)CCCCCCCCOc1cc(O)c2c(=O)c(OCCCCCCCCN(CC)CC)c(-c3ccc(OC)cc3)oc2c1CC=C(C)C
2. COC(=O)[C@H](CCCCN)NC(=O)COc1cc(O)c2c(=O)c(OCC(=O)N[C@@H](CCCCN)C(=O)OC)c(-c3ccc(OC)cc3)oc2c1CC=C(C)C
3. COC(=O)[C@H](CCCNC(=N)N)NC(=O)COc1cc(O)c2c(=O)c(OCC(=O)N[C@@H](CCCNC(=N)N)C(=O)OC)c(-c3ccc(OC)cc3)oc2c1CC=C(C)C
4. COc1ccc(-c2oc3c(CC=C(C)C)c(OCCBr)cc(O)c3c(=O)c2OCCBr)cc1
5. COc1ccc(-c2oc3c(CC=C(C)C)c(OCCCCN(C)C)cc(O)c3c(=O)c2OCCCCN(C)C)cc1

["> 50 µg/mL", "32.5 µM", "3.8 µM", "5 µM", "25 µg/mL"]
